Test: Effect of cyclodextrins on the aqueous solubility of BIRB 796
Format: physicochemical
Settings: aqueous cyclodextrin solution, aqueous with cosolvent or surfactant or cyclodextrin, aqueous, BCD 1.4 % w/v
property label: solubility (µg/mL)
Reply with just the number (in µg/mL).

[Q] What value of measured solubility is listed for Cc1ccc(-n2nc(C(C)(C)C)cc2NC(=O)Nc2ccc(OCCN3CCOCC3)c3ccccc23)cc1 [BIRB 796] ?
[A] 74

* * *

Assay: Effect of cyclodextrins on the aqueous solubility of BIRB 796
Format: physicochemical
Conditions: aqueous cyclodextrin solution, aqueous with cosolvent or surfactant or cyclodextrin, aqueous, HPBCD 10 % w/v
property label: solubility (µg/mL)
Entry rule: numbers only, all in µg/mL.

[Q] Entry under review: `Cc1ccc(-n2nc(C(C)(C)C)cc2NC(=O)Nc2ccc(OCCN3CCOCC3)c3ccccc23)cc1` . Reported solubility?
[A] 233
